Test system: HepG2
Assay: drug sensitivity score (DSS) for viability; higher = more toxic; extreme values may be limits of the assay
Conditions: 72 h
Below, each entry is listed with its recorded drug sensitivity score.

SMILES_REPR	SYSTEM	drug sensitivity score
N=C(NCc1ccc(Cl)cc1)SCCCc1c[nH]cn1	HepG2	0.2
O=S(=O)(c1ccccc1)c1cnc2c(N3CCNCC3)cccc2c1	HepG2	0
CC(C)Oc1ccc(-c2nc(-c3cccc4c3CC[C@@H]4NCCO)no2)cc1C#N	HepG2	3
CCCC(=O)Nc1ncnc2c1ncn2[C@@H]1O[C@@H]2COP(=O)(O)O[C@H]2[C@H]1OC(=O)CCC	HepG2	0
O=c1c(O[C@@H]2O[C@H](CO)[C@H](O)[C@H](O)[C@H]2O)c(-c2ccc(O)c(O)c2)oc2cc(O)cc(O)c12	HepG2	0
O=C1NC(=O)C(c2cnc3ccccn23)=C1c1cn2c3c(cc(F)cc13)CN(C(=O)N1CCCCC1)CC2	HepG2	3.2
C=C(NC(=O)C(=C)NC(=O)c1csc(C2=N[C@@H]3c4csc(n4)[C@H]4NC(=O)c5csc(n5)[C@H]([C@](C)(O)[C@@H](C)O)NC(=O)[C@H]5CSC(=N5)/C(=C/C)NC(=O)[C@H]([C@@H](C)O)NC(=O)c5csc(n5)[C@]3(CC2)NC(=O)[C@H](C)NC(=O)C(=C)NC(=O)[C@H](C)NC(=O)[C@H]([C@@H](C)CC)N[C@@H]2C=Cc3c([C@H](C)O)cc(nc3[C@H]2O)C(=O)O[C@@H]4C)n1)C(N)=O	HepG2	4.3
CCOC(=O)Nc1cc(-c2ccc(C)c(NS(C)(=O)=O)c2)nn2c(C)nnc12	HepG2	9.4
O=C1NC(=O)C(c2ccccc2[N+](=O)[O-])=C1Nc1ccc(O)c(Cl)c1	HepG2	0
CC(C)(C)C(=O)OCOP(=O)(COCCn1cnc2c(N)ncnc21)OCOC(=O)C(C)(C)C	HepG2	10.1

###

System: Vero E6
Assay: cell viability relative to DMSO; higher = less toxic
Settings: 72 h; 10 nM
MEASURED_ATTRIBUTE: cell viability (%)

>>> df
                                    compound  measured_attribute  measured
 0  CCCC(=O)O[C@]1(C(=O)CO)CC[C@H]2[C@@H]3CCC4=CC(=O)CC[C@]4(C)[C@H]3[C@@H](O)C[C@@]21C [hydrocortisone-butyrate]      cell viability        99
 1  O=C1[C@H](Cc2ccc(O)cc2)N2C(=O)CCN(C(=O)NCc3ccccc3)[C@H]2CN1Cc1cccc2ccccc12      cell viability      99.2
 2     O=C1NC(=O)/C(=C/c2cccc(C(F)(F)F)c2)S1      cell viability       101
 3  COC1CCN(c2cccc(-c3cc(NC(C)=O)nc(-n4nc(C)cc4C)n3)n2)CC1      cell viability       107
 4                             O=S(=O)(O)CCS      cell viability       102
 5         O=C(O)c1ccccc1Nc1cc(Cl)ccc1C(=O)O      cell viability      97.3
 6  CCC(=O)O[C@@H](O[P@@](=O)(CCCCc1ccccc1)CC(=O)N1C[C@H](C2CCCCC2)C[C@H]1C(=O)O)C(C)C      cell viability      97.8
 7  CCNC1(C(N)=O)CCN(c2ncnc3c2nc(-c2ccccc2Cl)n3-c2ccc(Cl)cc2)CC1      cell viability       103
 8         N=C(NCc1ccc(Cl)cc1)SCCCc1c[nH]cn1      cell viability       100
 9                    O=C(/C=C/c1ccccc1)NCCO      cell viability       103
10  O=c1cc(N2CCN(c3cccc(C(F)(F)F)c3)CC2)[nH]c(=O)n1C1CCCCC1      cell viability       101
11  O=C1C(Cl)=C(N2CCOCC2)C(=O)N1c1ccc(Cl)c(Cl)c1      cell viability      95.5
12  CC1(C)O[C@@H]2C[C@H]3[C@@H]4C[C@H](F)C5=CC(=O)C=C[C@]5(C)[C@H]4[C@@H](O)C[C@]3(C)[C@]2(C(=O)CO)O1 [flunisolide]      cell viability      97.6
13         c1ccc(OCc2ccc(CCCN3CCOCC3)cc2)cc1      cell viability      95.7
14           Cn1cnnc1Sc1c([N+](=O)[O-])ncn1C      cell viability      99.3
15                         NCCc1ccc(O)c(O)c1      cell viability       106
16  CCNCCS(=O)(=O)NC[C@@]1(c2ccccc2)SC(NC(=O)C(C)(C)C)=NN1C(=O)C(C)(C)C      cell viability       107
17  COc1ccc(C(=O)N2CCCc3cc(C4=NNC(=O)SC4C)ccc32)cc1OC (stereo not drawn)      cell viability       100
